TEST NAME: reversal of MRP1-mediated doxorubicin resistance, pilot screen, H69AR cells, doxorubicin co-treatment (AID 601)
REPORTED CONDITIONS: H69AR cells, CellTiter-Glo, 72 h; compound alone cytotoxicity; at 10 µM
List of viability values.
Note: state the figure and append the unit.

COMPOUND: COC(=O)c1ccccc1NC(=O)C1CC(=O)N(c2ccc(F)cc2)C1 (stereo unspecified)
viability: 96%

Please fill in: viability reported for CCOc1nc(-c2ccccc2)ccc1-c1noc(-c2cccnc2)n1 = 91.2%

Please fill in: viability reported for O=C(CSc1nnc(CNC(=O)c2c(F)cccc2Cl)o1)c1ccccc1 = 92.1%

Please fill in: viability reported for CC(=O)c1ccc(NS(=O)(=O)c2ccccc2)cc1 = 98.6%

Please fill in: viability reported for CCOC(=O)N1CCN(C(=O)Cn2ncn3nc(-c4cccs4)cc3c2=O)CC1 = 90.9%

Please fill in: viability reported for Cc1nc2sc(C(c3cccc(F)c3)N3CCOCC3)c(O)n2n1 (stereo unspecified) = 94.7%

Please fill in: viability reported for C=C(c1cccc2ccccc12)P(=O)(O)O = 92.9%

Please fill in: viability reported for COc1ccc(CN2CC(C(=O)NCCCOC(C)C)CC2=O)cc1 (stereo unspecified) = 99.1%

Please fill in: viability reported for CCCCCCCC(=O)OCC(=O)[C@@]1(O)CC[C@H]2[C@@H]3CCC4=CC(=O)CC[C@]4(C)[C@H]3[C@@H](O)C[C@@]21C = 102%

Please fill in: viability reported for CC(=O)N1CCc2cc(S(=O)(=O)CCC(=O)N3CCN(c4ccccn4)CC3)ccc21 = 98%

Please fill in: viability reported for Cc1ccc(-n2nnnc2SCC(=O)c2cc(C)n(-c3cc(C)on3)c2C)cc1 = 65.4%

Please fill in: viability reported for C[C@@H]1C[C@H]2[C@@H]3C[C@H](F)C4=CC(=O)C=C[C@]4(C)[C@@]3(F)[C@@H](O)C[C@]2(C)[C@@]1(O)C(=O)CO = 92.7%

Please fill in: viability reported for CCOC(=O)C1CCN(C(=O)c2ccc(Cl)c(Cl)c2)CC1 = 102%

Please fill in: viability reported for CN(C)c1ccc(CNCCC2(O)CCOC(C)(C)C2)cc1 (stereo unspecified) = 102%

Please fill in: viability reported for CCOC(=O)c1c(NCc2ccc3c(c2)OCO3)c2ccccc2[nH]c1=O = 87.3%

----------
TEST NAME: HUVEC growth inhibition – cell-based, human, primary screen (AID 575);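 also: 100% = median of untreated cell wells with 0.1% DMSO on each plate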
REPORTED CONDITIONS: HUVEC proliferation, CellTiter-Glo luminescence, 72 h; at 10 µM; stronger effect = lower value
The source made the active and inactive calls.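 The calls were made as follows: active = viability at or below 30% in both replicate assays; inconclusive = viability at or below 30% in just one of the two assays; inactive = the rest.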
METRIC: viability

MOLECULE: Cn1c(=O)c2c(nc(SCCCO)n2Cc2ccccc2Cl)n(C)c1=O
METRIC: viability
RESULT: 67.2% (inactive)
//
MOLECULE: Cc1ccc(S(=O)(=O)CCc2nnc(NC(=O)c3cnccn3)s2)cc1
METRIC: viability
RESULT: 116% (inactive)

Please fill in: viability reported for CCOC(=O)C1CCN(S(=O)(=O)c2cc(Cl)c(C)cc2OC)CC1 = 105% (inactive)

Please fill in: viability reported for CCOC(=O)C1=C(C)N=C2SCCC(=O)N2C1c1cc(Br)ccc1OC (stereo not given) = 107% (inactive)

Please fill in: viability reported for O=C(Cn1cnc2c(nnn2Cc2ccccc2)c1=O)c1ccc(Cl)cc1 = 84.5% (inactive)

Please fill in: viability reported for COc1ccc(C(=O)Nn2c(C3CCC3)nc3ccccc3c2=O)c(OC)c1 = 85.8% (inactive)

----------
TEST NAME: RAM signaling pathway blockade in yeast – S. cerevisiae, Pdr1DBD-CYC8 efflux-inhibited sensitized strain, primary screen (AID 1298);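 also: 0% = DMSO untreated cells without growth and 100% = 10 µM 1-NA-PP1 full growth; higher means more yeast growth rescued from 5-FOA killing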
REPORTED CONDITIONS: S. cerevisiae cbk1-as DSE1-URA3 strain, 5-FOA growth OD615, 2 d; at 50 µM; stronger effect = higher value
METRIC: RAM network inhibition (%)
Provide the reading as a plain figure in %.

Record excerpt, results attached:
COMPOUND: COc1ccc(CCNC(=O)CSc2nnnn2-c2ccccc2)cc1
READOUT UNITS: %
MEASURED NUMBER: 6.52

COMPOUND: CCCCOC(=O)Nc1ccc(N2CCOCC2)cc1
READOUT UNITS: %
MEASURED NUMBER: 4.87

COMPOUND: OC(C#CCN1CCOCC1)c1cccs1 (configuration not stated)
READOUT UNITS: %
MEASURED NUMBER: 4.66

Please fill in: RAM network inhibition reported for CCC(Sc1nc(C)cc(=O)[nH]1)C(=O)Nc1ccc(Cl)cn1 (configuration not stated) = 3.08

Please fill in: RAM network inhibition reported for c1ccc(C(Cc2nc(-c3cccnc3)no2)c2ccccc2)cc1 = 7.55

Please fill in: RAM network inhibition reported for COc1cccc(C2C(C(=O)c3ccco3)=C(O)C(=O)N2CCCN2CCOCC2)c1OC (configuration not stated) = 6.98

Please fill in: RAM network inhibition reported for O=C(O)c1ccc(CSc2nnc(-c3ccco3)o2)cc1 = 3.22

Please fill in: RAM network inhibition reported for COc1ccc(OC)c(NC(=O)C(CC(C)C)NC(=O)C2CCCCC2)c1 (configuration not stated) = 3.18

Please fill in: RAM network inhibition reported for CCOc1ccc(N=Cc2c(O)cc(C)oc2=O)cc1 = 1.99

----------
List of inhibition values.
TEST NAME: inhibitors of the yeast RAM network, pilot screen, dse1pr::URA3 reporter, 5-FOA selection (AID 869);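 also: 0% = DMSO wells with no growth and 100% = 10 µM 1-NA-PP1 with full growth; RAM network block rescues cells from 5-FOA so hits raise OD615 growth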
REPORTED CONDITIONS: S. cerevisiae dse1pr::URA3 5-FOA growth, OD615, 2 d; at 10 µM; stronger effect = higher value; strain carries analog-sensitive mutant Cbk1 kinase
Active and inactive are the calls of the source.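 The calls were made as follows: active = inhibition over a set limit, the all-compound mean plus 3 SD, in both replicate runs; inconclusive = over that limit in just one replicate run; inactive = at or under that limit in both runs.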

Record excerpt, results attached:
MOLECULE: CC(=O)C(Sc1ccc2nnc(-c3ccc(F)cc3)n2n1)C(C)=O
RESULT: -0.355% (inactive)
//
MOLECULE: CCOC(=O)Cc1nnc(NC(=O)CSc2nncn2C)s1
RESULT: 1.5% (inactive)
//
MOLECULE: CCCn1c2ccccc2c2cc(C(=O)O)ccc21
RESULT: 1.95% (inactive)

Please fill in: inhibition reported for CCCc1nc2sc3c(SCC(=O)NCc4ccco4)ncnc3c2c2c1CCC2 = 2.37% (inactive)

Please fill in: inhibition reported for CN1CCN(c2nc3c(c(=O)n(C)c(=O)n3C)n2CCSc2nc3ccccc3s2)CC1 = 1.37% (inactive)

Please fill in: inhibition reported for CCCNC(=O)CS(=O)Cc1nc(-c2ccc(OC)cc2)oc1C (stereo unspecified) = 1.62% (inactive)

Please fill in: inhibition reported for N=c1c2c3c(sc2nc2n1CCCCC2)CCCCC3 = 0.715% (inactive)

----------
TEST NAME: reversal of MRP1-mediated doxorubicin resistance, pilot screen, H69AR cells, doxorubicin co-treatment (AID 601)
REPORTED CONDITIONS: H69AR cells + 2 uM doxorubicin, CellTiter-Glo, 72 h; at 10 µM; stronger effect = higher value
METRIC: differential viability (reversal) (%)
Provide the reading as a plain figure in %.

MOLECULE: CC1CCCC(NC(=O)CSc2ncccc2C(=O)O)C1C (stereo not drawn)
differential viability (reversal) / %: 3.03

Please fill in: differential viability (reversal) reported for COCCN(C(=O)c1csnn1)C(C(=O)NC(C)(C)C)c1cccc(OC)c1 (stereo not drawn) = 0.985

Please fill in: differential viability (reversal) reported for COc1cc2c(cc1NC(=O)COC(=O)Cn1cnc3ccccc31)oc1ccccc12 = -16.1

Please fill in: differential viability (reversal) reported for CCN(CC)S(=O)(=O)N1CCC(C(=O)NC2CCCc3ccccc32)CC1 (stereo not drawn) = 4.3

Please fill in: differential viability (reversal) reported for Cc1cccc(OCC(=O)N2CCC(N3CCCCCC3)CC2)c1 = 7.21

Please fill in: differential viability (reversal) reported for COc1cc(OC)cc(C(=O)NCCN2CCOCC2)c1 = 1.49

Please fill in: differential viability (reversal) reported for COc1ccccc1N1CCN(C(=O)c2c(-c3c(Cl)cccc3Cl)noc2C)CC1 = 15

Please fill in: differential viability (reversal) reported for COc1ccc(-c2cc(C(=O)NCc3ccc(Cl)cc3)no2)cc1OC = 0.66

Please fill in: differential viability (reversal) reported for COc1ccccc1C(=O)N1CCN=C1SCc1cccnc1 = 11.6

Please fill in: differential viability (reversal) reported for Cc1cccc(N2C(=O)CC(N3CCN(C(=O)c4ccccc4)CC3)C2=O)c1 (stereo not drawn) = 12.7

Please fill in: differential viability (reversal) reported for COc1ccc(CNC(=O)c2cc3c(=O)n4ccccc4nc3n(Cc3ccco3)c2=N)cc1 = 33

Please fill in: differential viability (reversal) reported for O=C(C1CCCN(S(=O)(=O)c2ccc(Br)s2)C1)N1CCCCCC1 (stereo not drawn) = 9.84

Please fill in: differential viability (reversal) reported for CCOC(=O)C(NC(C)=O)(NS(=O)(=O)c1ccccc1)C(F)(F)F (stereo not drawn) = 5.89

Please fill in: differential viability (reversal) reported for CCN(Cc1cc2cc(OC)ccc2[nH]c1=O)C(=O)Cc1ccc(OC)cc1 = 6.29
